- EXPERIMENTAL TARGET: Torsin-1A (Homo sapiens) (UniProt O14656)
- Sequence (O14656 whole entry, looked up): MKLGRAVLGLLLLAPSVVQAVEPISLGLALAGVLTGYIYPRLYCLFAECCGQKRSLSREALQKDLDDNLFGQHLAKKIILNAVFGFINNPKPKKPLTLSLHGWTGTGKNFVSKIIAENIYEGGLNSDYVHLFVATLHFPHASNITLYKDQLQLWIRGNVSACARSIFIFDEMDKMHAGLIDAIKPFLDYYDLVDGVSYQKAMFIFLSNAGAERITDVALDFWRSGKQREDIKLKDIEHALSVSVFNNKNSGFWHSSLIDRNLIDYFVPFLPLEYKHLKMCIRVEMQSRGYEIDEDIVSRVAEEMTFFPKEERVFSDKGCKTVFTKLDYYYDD
- RUN DESCRIPTION: torsin A mutant lysate binding on microarrays – cell lysate, small-molecule microarray, COS7 lysate, 635/667 nm fluorescence, primary screen (AID 1150);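 note: score pools 667 nm emission and signal to noise measuring lysate protein binding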
- TEST CONTEXT: COS7 hTOR1A mutant lysate, 635 nm fluorescence, higher = more signal
The entries below come with measured composite z-score values attached.
API doc: respond with a numeric literal and nothing else, no unit.

{"COMPOUND": "CC(C)CN1C(=O)[C@@]2(c3ccc([N+](=O)[O-])cc3)CC(=O)N(C3CCCCC3)[C@@H]2c2ccc(CO)cc21", "EXPERIMENTAL TARGET": "Torsin-1A (Homo sapiens) (UniProt O14656)", "MEASUREMENT TYPE": "composite z-score", "RECORDED NUMBER": -1.67}
{"COMPOUND": "CCOC(=O)C1=CCC(c2ccc(F)cc2)N(S(=O)(=O)c2ccc(C)cc2)C1 (centres undefined)", "EXPERIMENTAL TARGET": "Torsin-1A (Homo sapiens) (UniProt O14656)", "MEASUREMENT TYPE": "composite z-score", "RECORDED NUMBER": 0.203}
{"COMPOUND": "COCCCNC(=O)[C@@]1(Cc2ccccc2)N=C(c2ccc(OCCCO)cc2)O[C@H]1c1ccccc1CN=[N+]=[N-]", "EXPERIMENTAL TARGET": "Torsin-1A (Homo sapiens) (UniProt O14656)", "MEASUREMENT TYPE": "composite z-score", "RECORDED NUMBER": 0.37}

Memo: `CN(C)CCCCCCNC(=O)[C@@H]1C[C@@H]2C(=O)N3CCC[C@H]3C(=O)N2[C@@H]1c1ccc(O)cc1` , reported composite z-score: 1.46
